Each recorded value in this set is attributed to ChEMBL document CHEMBL5154908.

# assayed-target: Mitogen-activated protein kinase 14 (Homo sapiens)
# Sequence (Q16539 whole entry): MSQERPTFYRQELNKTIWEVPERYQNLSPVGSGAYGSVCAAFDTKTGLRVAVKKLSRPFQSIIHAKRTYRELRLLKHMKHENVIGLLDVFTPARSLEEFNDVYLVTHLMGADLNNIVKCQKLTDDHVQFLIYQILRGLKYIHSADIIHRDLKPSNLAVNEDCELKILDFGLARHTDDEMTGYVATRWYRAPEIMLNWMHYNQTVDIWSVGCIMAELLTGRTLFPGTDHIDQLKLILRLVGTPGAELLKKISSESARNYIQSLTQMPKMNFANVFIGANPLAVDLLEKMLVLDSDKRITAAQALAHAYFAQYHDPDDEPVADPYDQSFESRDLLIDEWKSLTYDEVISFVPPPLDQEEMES
# assay-method-text: Inhibition of human recombinant full length GST-tagged p38alpha expressed in Escherichia coli preincubated for 2 hrs followed by ATP addition and measured after 1 hr by Alpha screen assay
Documented IC50 across a set of compounds

compound | assayed-target | IC50 [nM]
C[C@H]1CCCCN1c1nnc2ccc(O[C@@H]3CC[C@H](NC(=O)Nc4cc(C(C)(C)C)nn4-c4cnn(CCN5CCCOCC5)c4)c4ccccc43)cn12 | Mitogen-activated protein kinase 14 (Homo sapiens) | 0.4
C[C@H]1CCCCN1c1nnc2ccc(O[C@@H]3CC[C@H](NC(=O)Nc4cc(C(C)(C)C)nn4-c4cccc(OCCN(C)C)c4)c4ccccc43)cn12 | Mitogen-activated protein kinase 14 (Homo sapiens) | 0.2
C[C@H]1CCCCC1c1nnc2ccc(O[C@@H]3CC[C@H](NC(=O)Nc4cc(C(C)(C)C)nn4-c4cccc(CN5CCN(C)CC5)c4)c4ccccc43)cn12 (stereo partly drawn) | Mitogen-activated protein kinase 14 (Homo sapiens) | 0.3

====

Documented T1/2 across a set of compounds
# assayed-target: Mitogen-activated protein kinase 14 (Homo sapiens)
# assay-method-text: Displacement of SKF-86002 from human inactivated p38alpha assessed as dissociation half life incubated for 2 hrs by fluorescence based analysis

molecule | relation-qualifier | T1/2, h
CN1CCN(Cc2ccc(-n3nc(C(C)(C)C)cc3NC(=O)N[C@H]3CC[C@@H](Oc4ccc5nnc(N6CCCCC6)n5c4)c4ccccc43)cc2)CC1 | = | 1.4
Cc1ccc(-n2nc(C(C)(C)C)cc2NC(=O)N[C@H]2CC[C@@H](Oc3ccc4nnc(C(C)C)n4c3)c3ccccc32)cc1 | > | 16
C[C@H]1CCCCN1c1nnc2ccc(O[C@@H]3CC[C@H](NC(=O)Nc4cc(C(C)(C)C)nn4-c4cnn(CCN5CCN(C)CC5)c4)c4ccccc43)cn12 | > | 16
Cc1ccc(-n2nc(C(C)(C)C)cc2NC(=O)N[C@H]2CC[C@@H](Oc3ccc4nnc(N5CCC(CO)CC5)n4c3)c3ccccc32)cc1 | > | 16
CC(C)c1nnc2ccc(O[C@@H]3CC[C@H](NC(=O)Nc4cc(C(C)(C)C)nn4-c4cccc(OCCO)c4)c4ccccc43)cn12 | = | 1.9
CN(C)CCOc1cccc(-n2nc(C(C)(C)C)cc2NC(=O)N[C@H]2CC[C@@H](Oc3ccc4nnc(N5CCCCC5)n4c3)c3ccccc32)c1 | = | 3.6
C[C@@H]1CCCCN1c1nnc2ccc(O[C@@H]3CC[C@H](NC(=O)Nc4cc(C(C)(C)C)nn4-c4cccc(OCCN(C)C)c4)c4ccccc43)cn12 | = | 5.4
CC(C)(C)c1cc(NC(=O)N[C@H]2CC[C@@H](Oc3ccc4nnc(N5CCCCC5)n4c3)c3ccccc32)n(-c2cccc(CN3CCNCC3)c2)n1 | = | 5
C[C@H]1CCCCN1c1nnc2ccc(O[C@@H]3CC[C@H](NC(=O)Nc4cc(C(C)(C)C)nn4-c4cnn(CCN5CCC(O)CC5)c4)c4ccccc43)cn12 | > | 16
CC(C)(C)c1cc(NC(=O)N[C@H]2CC[C@@H](Oc3ccc4nnc(N5CCCCC5)n4c3)c3ccccc32)n(-c2cccc(CO)c2)n1 | > | 16
Cc1ccc(-n2nc(C(C)(C)C)cc2NC(=O)N[C@H]2CC[C@@H](Oc3ccc4nnc(N5CCC(O)CC5)n4c3)c3ccccc32)cc1 | > | 16
CC(C)c1nnc2ccc(O[C@@H]3CC[C@H](NC(=O)Nc4cc(C(C)(C)C)nn4-c4ccccc4)c4ccccc43)cn12 | = | 1.74
Cc1ccc(-n2nc(C(C)(C)C)cc2NC(=O)N[C@H]2CC[C@H](Oc3ccc4nnc(C(C)C)n4c3)CC2)cc1 | = | 0.09
C[C@H]1CCCCN1c1nnc2ccc(O[C@@H]3CC[C@H](NC(=O)Nc4cc(C(C)(C)C)nn4-c4cnnc(OCCN(C)C)c4)c4ccccc43)cn12 | = | 1.1

====

# assay-method-text: Protein binding in rat plasma at 10 uM incubated for 4 hrs by LC/MS/MS analysis
# Type: ADME, cell-free
# recorded-conditions: read-out: PPB (converted)

molecule | relation-qualifier | fraction unbound at 4 h, 10 µM
Cc1ccc(-n2nc(C(C)(C)C)cc2NC(=O)N[C@H]2CC[C@@H](Oc3ccc4nnc(N5CCCCC5)n4c3)c3ccccc32)cc1 | < | 0.001
Cc1ccc(-n2nc(C(C)(C)C)cc2NC(=O)N[C@H]2CC[C@@H](Oc3ccc4nnc(C(C)C)n4c3)c3ccccc32)cc1 | < | 0.001
C[C@H]1CCCCN1c1nnc2ccc(O[C@@H]3CC[C@H](NC(=O)Nc4cc(C(C)(C)C)nn4-c4cccc(OCCN(C)C)c4)c4ccccc43)cn12 | = | 0.003
C[C@@H]1CCC[C@H](C)N1c1nnc2ccc(O[C@@H]3CC[C@H](NC(=O)Nc4cc(C(C)(C)C)nn4-c4cnn(CCN(C)C)c4)c4ccccc43)cn12 | = | 0.004
Cc1ccc(-n2nc(C(C)(C)C)cc2NC(=O)N[C@H]2CC[C@@H](Oc3ccc4nnc(N5CCC(CO)CC5)n4c3)c3ccccc32)cc1 | = | 0.001
C[C@H]1CCCCN1c1nnc2ccc(O[C@@H]3CC[C@H](NC(=O)Nc4cc(C(C)(C)C)nn4-c4cnn(CCN(C)C)c4)c4ccccc43)cn12 | = | 0.014

====

# assayed-target: Mitogen-activated protein kinase 11 (Homo sapiens, UniProt Q15759)
# Sequence (Q15759 whole entry): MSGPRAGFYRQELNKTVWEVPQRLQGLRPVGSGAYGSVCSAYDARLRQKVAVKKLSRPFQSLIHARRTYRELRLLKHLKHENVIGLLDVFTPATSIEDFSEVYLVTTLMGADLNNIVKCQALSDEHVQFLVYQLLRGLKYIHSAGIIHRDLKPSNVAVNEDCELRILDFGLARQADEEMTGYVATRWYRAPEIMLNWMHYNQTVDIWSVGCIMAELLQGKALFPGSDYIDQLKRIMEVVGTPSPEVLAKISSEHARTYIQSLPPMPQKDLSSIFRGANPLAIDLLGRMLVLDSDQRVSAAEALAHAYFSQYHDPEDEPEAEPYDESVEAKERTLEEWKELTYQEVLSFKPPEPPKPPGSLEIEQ
# assay-method-text: Inhibition of recombinant human full length His-tagged p38beta expressed in baculovirus expression system preincubated for 2 hrs followed by ATP addition and measured after 1 hr by Alpha screen assay
reported-property: IC50 (nM)

molecule | readout-value
Cc1ccc(-n2nc(C(C)(C)C)cc2NC(=O)N[C@H]2CC[C@@H](Oc3ccc4nnc(N5CCCCC5)n4c3)c3ccccc32)cc1 | 0.4
Cc1ccc(-n2nc(C(C)(C)C)cc2NC(=O)N[C@H]2CC[C@@H](Oc3ccc4nnc(C(C)C)n4c3)c3ccccc32)cc1 | 0.2
Cc1ccc(-n2nc(C(C)(C)C)cc2NC(=O)N[C@H]2CC[C@@H](Oc3ccc4nnc(N5CCC(CO)CC5)n4c3)c3ccccc32)cc1 | 0.8
C[C@H]1CCCCN1c1nnc2ccc(O[C@@H]3CC[C@H](NC(=O)Nc4cc(C(C)(C)C)nn4-c4cccc(OCCN(C)C)c4)c4ccccc43)cn12 | 1.3
C[C@@H]1CCC[C@H](C)N1c1nnc2ccc(O[C@@H]3CC[C@H](NC(=O)Nc4cc(C(C)(C)C)nn4-c4cnn(CCN(C)C)c4)c4ccccc43)cn12 | 0.1

====

Documented pIC50 across a set of molecules
# assayed-target: Mitogen-activated protein kinase 13 (Homo sapiens)
# Sequence (O15264 whole entry): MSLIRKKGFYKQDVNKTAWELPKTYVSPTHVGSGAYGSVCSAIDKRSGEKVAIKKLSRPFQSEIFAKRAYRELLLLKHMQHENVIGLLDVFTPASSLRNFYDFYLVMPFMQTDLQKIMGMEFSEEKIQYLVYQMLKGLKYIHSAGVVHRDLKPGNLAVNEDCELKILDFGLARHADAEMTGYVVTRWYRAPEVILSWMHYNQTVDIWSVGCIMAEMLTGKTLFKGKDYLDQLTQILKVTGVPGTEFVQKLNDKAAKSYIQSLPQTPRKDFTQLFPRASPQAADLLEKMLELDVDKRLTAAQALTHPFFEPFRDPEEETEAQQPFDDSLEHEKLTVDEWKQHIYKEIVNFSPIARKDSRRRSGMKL
# assay-method-text: Inhibition of recombinant human full length His-tagged p38delta expressed in baculovirus expression system preincubated for 2 hrs followed by ATP addition and measured after 1 hr by Alpha screen assay
pIC50: −log10 of the molar value.
reported-property: pIC50

molecule | readout-value
C[C@H]1CCCCN1c1nnc2ccc(O[C@@H]3CC[C@H](NC(=O)Nc4cc(C(C)(C)C)nn4-c4cccc(OCCN(C)C)c4)c4ccccc43)cn12 | < 5.00
C[C@H]1CCCCN1c1nnc2ccc(O[C@@H]3CC[C@H](NC(=O)Nc4cc(C(C)(C)C)nn4-c4cnn(CCN(C)C)c4)c4ccccc43)cn12 | 5.39
Cc1ccc(-n2nc(C(C)(C)C)cc2NC(=O)N[C@H]2CC[C@@H](Oc3ccc4nnc(N5CCC(CO)CC5)n4c3)c3ccccc32)cc1 | 6.03
Cc1ccc(-n2nc(C(C)(C)C)cc2NC(=O)N[C@H]2CC[C@@H](Oc3ccc4nnc(C(C)C)n4c3)c3ccccc32)cc1 | < 5.30
Cc1ccc(-n2nc(C(C)(C)C)cc2NC(=O)N[C@H]2CC[C@@H](Oc3ccc4nnc(N5CCCCC5)n4c3)c3ccccc32)cc1 | < 5.00
C[C@@H]1CCC[C@H](C)N1c1nnc2ccc(O[C@@H]3CC[C@H](NC(=O)Nc4cc(C(C)(C)C)nn4-c4cnn(CCN(C)C)c4)c4ccccc43)cn12 | < 5.00

====

# assay-method-text: Permeability across apical to basolateral side in human Caco-2 cells at 10 uM measured after 60 mins by LC/MS/MS analysis
# Assay type: ADME, cell-based
# recorded-conditions: read-out: permeability
# if value of Papp A→B at 1 h, 10 µM reaches 2 ×10⁻⁶ cm/s, tag Yes; if it stays below, tag No

molecule | assigned-label
Cc1ccc(-n2nc(C(C)(C)C)cc2NC(=O)N[C@H]2CC[C@@H](Oc3ccc4nnc(C(C)C)n4c3)c3ccccc32)cc1 | Yes
Cc1ccc(-n2nc(C(C)(C)C)cc2NC(=O)N[C@H]2CC[C@@H](Oc3ccc4nnc(N5CCCCC5)n4c3)c3ccccc32)cc1 | Yes
C[C@@H]1CCC[C@H](C)N1c1nnc2ccc(O[C@@H]3CC[C@H](NC(=O)Nc4cc(C(C)(C)C)nn4-c4cnn(CCN(C)C)c4)c4ccccc43)cn12 | No
C[C@H]1CCCCN1c1nnc2ccc(O[C@@H]3CC[C@H](NC(=O)Nc4cc(C(C)(C)C)nn4-c4cccc(OCCN(C)C)c4)c4ccccc43)cn12 | No
Cc1ccc(-n2nc(C(C)(C)C)cc2NC(=O)N[C@H]2CC[C@@H](Oc3ccc4nnc(N5CCC(CO)CC5)n4c3)c3ccccc32)cc1 | Yes
C[C@H]1CCCCN1c1nnc2ccc(O[C@@H]3CC[C@H](NC(=O)Nc4cc(C(C)(C)C)nn4-c4cnn(CCN(C)C)c4)c4ccccc43)cn12 | No
